# assayed.target: Vps34 (PIK3C3 lipid kinase) (Homo sapiens)
# Sequence (Q8NEB9 whole entry, species assumed): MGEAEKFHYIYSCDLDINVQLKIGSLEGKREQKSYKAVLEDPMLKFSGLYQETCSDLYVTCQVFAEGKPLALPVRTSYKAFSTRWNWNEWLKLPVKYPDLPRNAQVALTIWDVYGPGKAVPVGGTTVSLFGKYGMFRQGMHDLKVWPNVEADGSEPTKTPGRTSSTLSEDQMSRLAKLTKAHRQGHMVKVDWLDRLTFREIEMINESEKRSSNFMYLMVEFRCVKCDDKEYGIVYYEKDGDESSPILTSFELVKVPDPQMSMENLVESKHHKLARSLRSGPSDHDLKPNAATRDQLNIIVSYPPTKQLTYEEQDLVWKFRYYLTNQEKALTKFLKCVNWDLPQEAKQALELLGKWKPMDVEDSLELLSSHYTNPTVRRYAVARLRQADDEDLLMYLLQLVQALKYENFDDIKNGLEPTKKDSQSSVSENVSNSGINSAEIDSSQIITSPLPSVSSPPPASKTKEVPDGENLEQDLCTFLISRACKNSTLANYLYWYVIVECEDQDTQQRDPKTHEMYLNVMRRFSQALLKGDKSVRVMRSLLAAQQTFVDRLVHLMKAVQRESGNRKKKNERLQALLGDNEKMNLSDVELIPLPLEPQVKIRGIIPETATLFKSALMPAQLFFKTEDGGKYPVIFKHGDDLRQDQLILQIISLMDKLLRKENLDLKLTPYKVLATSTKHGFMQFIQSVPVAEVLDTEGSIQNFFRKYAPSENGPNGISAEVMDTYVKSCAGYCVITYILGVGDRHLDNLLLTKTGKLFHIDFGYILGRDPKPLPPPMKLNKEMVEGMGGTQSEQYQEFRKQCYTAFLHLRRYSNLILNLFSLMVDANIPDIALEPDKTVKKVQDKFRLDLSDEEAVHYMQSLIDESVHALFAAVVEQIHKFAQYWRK
# test: Biochemical Vps34 lipid kinase assay (ADP-Glo)
# details: serial half-log dilution 10 μM to 0.3 nM; pIC50 = -log IC50 (M)
For each entry below, report its IC50 value.

Look at this molecule and give its reported IC50. CN1CCN2Cc3cccc(c3)Nc3nccc(n3)-c3ccc(nc3)NCCCNC(=O)CC1C2 (stereo not shown) [Compound 71]
1.74e-08 M

I'd like to know its IC50. The molecule in question is O=C1CN2CCN(CC2)Cc2cccc(c2)Nc2nccc(n2)-c2ccc(nc2)NCC(O)CN1 (stereo not shown) [Compound 23]
1.51e-07 M

Form field: reported IC50 of O=C1CNCCNc2ccc(cn2)-c2ccnc(n2)Nc2cccc(c2)CN2CCN1CC2 [Compound 113]
1.66e-07 M

GET /values?readout=IC50&item= CN1CCCN(C)c2ccc(cn2)-c2ccnc(n2)Nc2cccc(c2)CN2CCN(C)C(C2)C1=O (stereo not shown) [Compound 75]
1.38e-06 M
